Where these numbers come from: ChEMBL document CHEMBL1148617

biological target: Adenosine receptor A2a (Homo sapiens); assay: Displacement of [3H]ZM-241385 from recombinant human adenosine A2A receptor expressed in HeLa cells at 0.1 uM
Sequence (P29274 whole entry): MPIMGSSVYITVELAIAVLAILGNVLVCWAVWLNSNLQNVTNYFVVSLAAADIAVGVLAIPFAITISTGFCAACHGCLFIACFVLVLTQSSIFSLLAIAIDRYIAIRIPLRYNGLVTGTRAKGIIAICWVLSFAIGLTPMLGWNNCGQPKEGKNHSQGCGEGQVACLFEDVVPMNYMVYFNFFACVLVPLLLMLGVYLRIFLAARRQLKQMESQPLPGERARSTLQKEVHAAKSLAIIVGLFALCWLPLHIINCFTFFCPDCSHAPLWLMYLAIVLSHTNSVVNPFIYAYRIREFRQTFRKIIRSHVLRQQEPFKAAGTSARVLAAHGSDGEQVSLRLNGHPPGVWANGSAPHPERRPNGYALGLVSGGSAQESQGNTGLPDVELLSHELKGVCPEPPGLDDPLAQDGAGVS
quantity: inhibition (%)

{"molecule": "Cn1c(=O)c2[nH]c(-c3ccc(OCC(=O)NC4CCc5ccccc54)cc3)cc2n(C)c1=O (stereo not drawn)", "unit.annotation": "%", "inhibition": 20}
{"molecule": "Cn1c(=O)c2[nH]c(-c3ccc(OCC(=O)Nc4cnccn4)cc3)cc2n(C)c1=O", "unit.annotation": "%", "inhibition": 20}
{"molecule": "COc1cc(-c2cc3c([nH]2)c(=O)n(C)c(=O)n3C)ccc1OCC(=O)Nc1ccccc1", "unit.annotation": "%", "inhibition": 20}

----------
target: Adenosine receptor A2a (Homo sapiens)
pKi: −log10 of the molar value.
quantity: pKi

{"compound": "CCn1c(=O)c2[nH]c(-c3ccc(OCC(=O)O)cc3)cc2n(CCCOC)c1=O", "pKi": 6.03}
{"compound": "CCCn1c(=O)c2[nH]c(-c3ccc(OC(C)C(=O)Nc4ccc(F)cc4)cc3)cc2n(CCC)c1=O (centres undefined)", "pKi": 7.23}
{"compound": "CCCn1c(=O)c2[nH]c(-c3ccc(OCC(=O)Nc4ccc(OC)cc4)cc3)cc2n(CCC)c1=O", "pKi": 7.70}

P: Cn1c(=O)c2[nH]c(-c3ccc(OCC(=O)Nc4nncs4)cc3)cc2n(C)c1=O
Q: CCCn1c(=O)c2[nH]c(-c3ccc(OCC(=O)O)cc3)cc2n(C)c1=O
**Q:** I'm curious whether P or Q has the smaller pKi number. Which is it? Give the label under which the chosen entry appears.
**A:** Q
(Q: 5.39, P: 7.79)

1: CCCn1c(=O)c2[nH]c(-c3ccc(OCC(=O)Nc4ccc(CS(=O)(=O)N5CCCC5)cc4)cc3)cc2n(CCC)c1=O
2: CCCn1c(=O)c2[nH]c(-c3ccc(OCC(=O)Nc4ccc([N+](C)(C)C)cc4)cc3)cc2n(CCC)c1=O
3: COCCCn1c(=O)n(C)c(=O)c2[nH]c(-c3ccc(OCC(=O)Nc4ccccc4)cc3)cc21
**Q:** Order field: pKi | Direction: descending (largest first) API: response body holds the labels in the requested order.
**A:** 1, 3, 2

----------
target: Adenosine receptor A2b (Homo sapiens) (UniProt P29275); test: Displacement of [3H]DPCPX from recombinant human adenosine A2B receptor expressed in HEK293 cells at 0.1 uM; assay type: cell-based
Sequence (P29275 whole entry): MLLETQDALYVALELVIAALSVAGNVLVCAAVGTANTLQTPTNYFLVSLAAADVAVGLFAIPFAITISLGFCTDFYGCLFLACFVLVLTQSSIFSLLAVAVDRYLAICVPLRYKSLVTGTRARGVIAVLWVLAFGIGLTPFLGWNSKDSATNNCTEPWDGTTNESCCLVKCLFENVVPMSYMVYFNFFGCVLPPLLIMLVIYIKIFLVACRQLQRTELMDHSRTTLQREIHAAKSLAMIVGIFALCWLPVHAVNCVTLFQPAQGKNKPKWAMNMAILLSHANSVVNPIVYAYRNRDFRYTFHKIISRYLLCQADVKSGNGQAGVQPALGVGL
quantity: inhibition (%)

Example compounds with recorded inhibition:
{"smiles.str": "Cn1c(=O)c2[nH]c(-c3ccc(OCC(=O)NCc4ccncc4)cc3)cc2n(C)c1=O", "quantity": "inhibition", "observed": 51}
{"smiles.str": "CCCn1c(=O)c2[nH]c(-c3ccc(OCC(=O)Nc4ccc(C(N)=O)cc4)cc3)cc2n(CCC)c1=O", "quantity": "inhibition", "observed": 78}

a: CCCn1c(=O)c2[nH]c(-c3ccc(OC(C)(C)C(=O)Nc4ccc(Br)cc4)cc3)cc2n(CCC)c1=O
b: CCCn1c(=O)c2[nH]c(-c3ccc(OCC(=O)NCc4ccccc4)cc3)c(Cl)c2n(CCC)c1=O
**Q:** // returns a or b , whichever has the lower inhibition Identify your pick by its label.
**A:** b
